# Test system: MDA-MB-468 breast
# assay_details: NCI-60 one-dose screen, 48 h (100 = growth as untreated, 0 = no growth, -100 = all killed)
# experimental_setup: 10 µM unless noted
This is part of a sample that, as a whole, favours compounds with a hit. Of some 83,000 tested, about 20% had one in any assay.
I'd appreciate it if you marked entries met when growth is lower than 90% and not met when it is not.

{"molecule": "c1ccc(-c2cn3c(ccc4ccccc43)n2)cc1", "target_or_system": "MDA-MB-468 breast", "assigned_class": "met"}
{"molecule": "CCCCCCCCCCN(CCCCCCCCCC)CC(=O)c1ccc2cc(Br)c3ccccc3c2c1", "target_or_system": "MDA-MB-468 breast", "assigned_class": "not met"}
{"molecule": "FC(F)(F)c1ccc2c(c1)N(CCCN1CCN(C3CC3)CC1)c1ccccc1S2", "target_or_system": "MDA-MB-468 breast", "assigned_class": "met"}
{"molecule": "CN(C)/C(N)=N/N=C(\\c1ccccc1)c1ccccn1", "target_or_system": "MDA-MB-468 breast", "assigned_class": "not met"}
{"molecule": "CC1=NN(c2cccc(Cl)c2)C(=O)/C1=C\\c1cn(-c2nc(N3CCOCC3)nc(N3CCOCC3)n2)c2ccccc12", "target_or_system": "MDA-MB-468 breast", "assigned_class": "not met"}
{"molecule": "O=Cc1ccc(O)c(O)c1", "target_or_system": "MDA-MB-468 breast", "assigned_class": "not met"}
{"molecule": "COc1ccc(S(=O)(=O)Nc2c(/C=C\\c3cc(OC)c(OC)c(OC)c3)ccc(OC)c2O)cc1", "target_or_system": "MDA-MB-468 breast", "assigned_class": "met"}
{"molecule": "CC(CN)[C@@H]1CC[C@]2(CO)CC[C@]3(C)[C@H](CC[C@@H]4[C@@]5(C)CCC(N)C(C)(C)[C@@H]5CC[C@]43C)[C@@H]12 (some centres undefined)", "target_or_system": "MDA-MB-468 breast", "assigned_class": "met"}
{"molecule": "COc1ccc(/C=N/NC(=O)CN2CCN(c3cc4c(cc3F)c(=O)c(C(=O)O)cn4C3CC3)CC2)cc1O", "target_or_system": "MDA-MB-468 breast", "assigned_class": "not met"}
